Hey, just so you know, these numbers are from PubChem BioAssay (Tox21).

- method summary: qHTS assay to identify small molecule HDAC inhibitors - cell viability counter screen (AID 1259365); note: % is set by controls: 0 for no effect and ±100 for the full control effect; nearly all actives have a fitted effect of over 50% in size
- protocol conditions: HCT-116 viability, CellTiter-Glo ATP luminescence, 2 h; series mostly up to 92.4 µM
Activity calls are given as the source filed them. Calls come from the whole dose curve; as a rule, active = well fitted cell-killing curve with a large enough effect in the repeat runs; inconclusive = weak or mixed curves, or effect the other way; inactive = flat fitted curve, though single readings scatter. Where a SMILES comes first, the peptide text is derived from it.
measurement kind: activity change, negative = cytotoxicity

Please review the following examples before continuing.
compound=CO[C@@]1(NC(=O)Cc2cccs2)C(=O)N2C(C(=O)O)=C(COC(N)=O)CS[C@@H]21 test_result=inactive
compound=Nc1nnnn1-c1ccccc1 test_result=inactive
compound=[O]=[Mo](=[O])=[O] test_result="3.01% [at 19 µM] (inactive)"
compound="O=C(O)CSCC(=O)NC1CCSC1=O (configuration not stated)" test_result=inactive
compound=O=C(Cl)c1ccccc1[N+](=O)[O-] test_result=inactive
compound=CN1C[C@@H]2C[C@H]1CN2c1cc2c(cc1F)c(=O)c(C(=O)O)cn2C1CC1 test_result="5.3% [at 19 µM] (inactive)"

Ask | Query activity change, negative = cytotoxicity for CCN1CCCC1CN (configuration not stated)
Reply | inactive

Ask | Fill in activity change, negative = cytotoxicity for record C=CCOC(=O)CCCCCC
Reply | inactive

Ask | // fetch activity change, negative = cytotoxicity given entry O=C=NCC1CCCC(CN=C=O)C1 (configuration not stated)
Reply | inactive

Ask | Please give the documented activity change, negative = cytotoxicity of COc1cc2c(cc1OC)CN(C(=O)[C@H](C)N[C@@H](CCc1ccccc1)C(=O)O)[C@H](C(=O)O)C2
Reply | inactive

Ask | Annotate the compound CC1OCCC1=O (configuration not stated) with its measured activity change, negative = cytotoxicity.
Reply | inactive

Ask | Entry CC(=O)N[C@@H](CO)C(=O)N[C@@H](CC(=O)O)C(=O)N[C@@H](CCCCN)C(=O)N1CCC[C@H]1C(=O)O (Ac-SDKP-OH) needs its activity change, negative = cytotoxicity filled in; supply it.
Reply | inactive

---

- method summary: Human pregnane X receptor (PXR) small molecule agonists, qHTS cell viability counter screen (AID 1346977); note: % is set by controls: 0 for no effect and ±100 for the full control effect; nearly all actives have a fitted effect of over 50% in size
- protocol conditions: PXR-Luc HepG2 viability, CellTiter-Fluor, 24 h; series mostly up to 92.4 µM
Inconclusive results are not listed. Activity calls are given as the source filed them. Calls come from the whole dose curve; as a rule, active = well fitted cell-killing curve with a large enough effect in the repeat runs; inconclusive = weak or mixed curves, or effect the other way; inactive = flat fitted curve, though single readings scatter.
measurement kind: activity change, negative = cytotoxicity

molecule=CC(C)NC(=O)c1ccc(C=O)cc1 test_result=inactive
molecule=C=CCOC(=O)CCCCCC test_result=inactive
molecule=ONc1ccccc1 test_result=inactive
molecule=CC(CO)(CO)CO test_result=inactive
molecule="CC1c2ccccc2CN1NC(=O)c1ccc(Cl)c(S(N)(=O)=O)c1 (stereo not drawn)" test_result=inactive

Ask | Indicate its recorded activity change, negative = cytotoxicity; the molecule in question is OC1OCCOC1O (stereo not drawn)
Reply | inactive

Ask | Fill in activity change, negative = cytotoxicity for record CC/C=C\CCOC(=O)c1ccccc1O
Reply | inactive

Ask | Consider the molecule CCC(C(=O)OCCN1CCOC(c2ccccc2)C1C)c1ccccc1 (stereo not drawn) . State its measured activity change, negative = cytotoxicity.
Reply | inactive

---

- assay target: Aryl hydrocarbon receptor (Homo sapiens)
- method summary: qHTS assay to identify small molecule that activate the aryl hydrocarbon receptor (AhR) signaling pathway (AID 743085); note: nearly all actives have a fitted effect of over 15% in size;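 for activation: HG2L7.5c1 human HepG2 liver cells with stably integrated DRE-driven firefly reporter; % is set by controls: 0 for no effect and ±100 for the full control effect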
- protocol conditions: HepG2 AhR-luc (HG2L7.5c1), luciferase, 24 h; series mostly up to 70.3 µM
Inconclusive results are not listed. The source made the active and inactive calls. Calls follow the shape of the dose curve; as a rule, active = well fitted activation curve with a large enough effect in the repeat runs; inconclusive = weak or mixed curves; inactive = no such curve, though single readings can be large or run the other way.
One label from this list, please: yes = active, no = inactive

Field: example entries. Status: answers known.
line_notation=C/C=C(\C)C(C)=O assigned_category=no
line_notation=C=C(C)[C@@H]1CC=C(C)C(=O)C1 assigned_category=no
line_notation=CC(=O)CCc1ccc(OC(C)=O)cc1 assigned_category=no
line_notation=CCCCCCCCCCCCCCCCCCOCCO assigned_category=no
line_notation=CSc1cnccn1 assigned_category=no

Field: next molecule
Ask | Dear all, I need the recorded test outcome for CC/C(C)=N\O[Si](C)(O/N=C(\C)CC)O/N=C(\C)CC , thank you.
Reply | yes
